- Tested on: Trypanosoma brucei
- assay_details: Antimicrobial activity against Trypanosoma brucei
- Format: functional, organism-based
endpoint: IC50 (µM)

Known results for compounds:
# compound, measurement_unit, IC50
measured = [
    ("CCCCC12CC3CC(C1)CC(NC)(C3)C2", "µM", 2),
    ("Clc1cc(Cl)c2[nH]c3nc4ccccc4c-3cc2c1", "µM", 32),
    ("CCNC1(C)CC(C)(C)CC(C)(C)C1", "µM", 6),
]

[P] Clc1ccc2[nH]c3nc4ccccc4c-3cc2c1
[Q] Cn1c2nc3ccccc3c-2cc2cc(Cl)ccc21
[R] CCCC1(C)CC(C)(C)CC(C)(N)C1 (centres undefined)
[S] CNC12CC3CC(C1)CC(C(C)C)(C3)C2
q: Put the compounds in ascending order of IC50. Write the labels in rank order as requested.
a: Q, R, S, P

[A] CSc1ccc2c(c1)cc1c3ccccc3nc-1n2C
[B] CCCC1CC(C)(C)CC(C)(N)C1 (centres undefined)
[C] Cn1c2nc3ccc(C#N)cc3c-2cc2cc(C(F)(F)F)ccc21
q: Put the compounds in ascending order of IC50. Write the labels in rank order as requested.
a: A, B, C

[I] Cn1c2nc3ccccc3c-2cc2ccc(C(F)(F)F)cc21
[II] NCCCC12CC3CC(CC(C3)C1)C2
q: Among I and II , whose measured IC50 is the smaller figure? Reply with the label of the item you choose.
a: II
(II: 1 µM, I: 17 µM)
